The measured values listed here are drawn from patent US10344025B2.

# Target desc: purified recombinant human GAC (GLS1) (Homo sapiens (Human), UniProt O94925)
# Sequence (O94925 other isoform, or with tags, fused parts or gaps): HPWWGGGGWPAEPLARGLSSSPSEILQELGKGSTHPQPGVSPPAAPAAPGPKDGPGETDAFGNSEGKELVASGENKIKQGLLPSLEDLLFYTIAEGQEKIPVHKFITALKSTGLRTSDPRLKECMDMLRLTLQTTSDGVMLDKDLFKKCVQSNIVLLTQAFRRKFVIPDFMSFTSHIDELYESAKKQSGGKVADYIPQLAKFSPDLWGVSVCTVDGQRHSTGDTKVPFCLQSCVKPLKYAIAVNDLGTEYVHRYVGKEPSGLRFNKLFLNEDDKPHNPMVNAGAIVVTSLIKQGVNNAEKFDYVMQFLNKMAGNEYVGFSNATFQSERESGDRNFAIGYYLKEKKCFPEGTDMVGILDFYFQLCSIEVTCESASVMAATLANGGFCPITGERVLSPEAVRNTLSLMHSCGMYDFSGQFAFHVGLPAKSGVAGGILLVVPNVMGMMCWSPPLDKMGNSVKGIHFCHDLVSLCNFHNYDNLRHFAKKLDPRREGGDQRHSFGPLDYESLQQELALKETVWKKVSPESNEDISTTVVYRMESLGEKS
# Assay protocol: GLS1 Enzymatic Activity Assay (dual-coupled enzymatic assay, resorufin/Amplex UltraRed readout)
# Assay type: biochemical
pIC50: −log10 of the molar value.
What pIC50 was measured for each of the following?

Sample answers from the record:
Compound	pIC50
Cc1ccc(CNC(=O)c2cn(CCCCn3cc(NC(=O)Cc4cc(Cl)ccc4F)nn3)nn2)cn1 [Example 388]	> 7.00
O=C(NCc1cc(C(F)(F)F)ccn1)c1cn(CC(F)CCc2nnc(C(=O)NCc3cccc(OC(F)(F)F)c3)s2)nn1 (stereo not shown) [Example 446]	> 7.00
COCCNC(=O)c1nnc(CCC(F)Cn2cc(C(=O)NCc3cccc(OC(F)(F)F)c3)nn2)s1 (stereo not shown) [Example 523]	6.30 to 7.00

Query compound follows.
According to the records, this compound COc1cccc(CNC(=O)c2cn(CCC(F)Cn3cc(C(=O)NCc4cc(C(F)(F)F)ccn4)nn3)nn2)c1 (stereo not shown) [Example 468] displays pIC50 of > 7.00

###

# Target desc: purified recombinant human GAC (GLS1) (Homo sapiens (Human), UniProt O94925)
# Assay protocol: GLS1 Enzymatic Activity Assay (dual-coupled enzymatic assay, resorufin/Amplex UltraRed readout);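 further: glutamate from GAC coupled via glutamate oxidase and peroxidase to resorufin, read as fluorescence (ex 530, em 590 nm) kinetically or at 20 min, four-parameter logistic IC50 fit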
pIC50: −log10 of the molar value.
What pIC50 was measured for each of the following?

Sample answers from the record:
Compound	pIC50
Cc1ccc(CNC(=O)c2cn(CC(F)CCc3nnc(NC(=O)Cc4cccc(OC(F)(F)F)c4)s3)nn2)cn1 (stereo not drawn)	> 7.00
CNC(=O)c1cn(CC(F)CCc2nnc(C(=O)NCc3cccc(N4CCCCC4)c3)s2)nn1 (stereo not drawn)	6.30 to 7.00
O=C(Nc1nnc(CCC(F)Cn2cc(C(=O)NCc3cc(OC(F)(F)F)ccc3F)nn2)s1)c1ccncc1 (stereo not drawn)	> 7.00
Cc1ccc(CNC(=O)c2nnc(CCCCn3cc(C(=O)NCc4ccccn4)nn3)s2)cn1	6.30 to 7.00
O=C(CC1CC1)Nc1cn(CCCCn2cc(C(=O)NCc3cccnc3)nn2)nn1	5.30 to 6.30
O=C(CN1CC(F)C1)Nc1cn(CC(F)CCn2cc(C(=O)NCc3cc(OC(F)(F)F)ccc3F)nn2)nn1 (stereo not drawn)	> 7.00
COc1cccc(CNC(=O)c2cn(CC(F)CCc3nnc(NC(=O)Cc4cc(OC(F)(F)F)ccc4F)s3)nn2)n1 (stereo not drawn)	> 7.00
O=C(NCCC(F)(F)F)c1cn(CC(F)CCc2nnc(C(=O)NCc3cc(C(F)(F)F)ccn3)s2)nn1 (stereo not drawn)	6.30 to 7.00
CNC(=O)c1cn(CCCCn2cc(C(=O)NCc3cc(C(F)(F)F)ccn3)nn2)nn1	5.30 to 6.30
O=C(NCc1cccc(OC(F)(F)F)c1)c1cn(CCCCn2cc(C(=O)NCc3cncc(C(F)(F)F)c3)nn2)nn1	> 7.00

Consider the following items and state reported pIC50 for each.
1. O=C(Cc1ccccn1)Nc1nnc(CCC(F)Cn2cc(C(=O)NCc3cncc(C(F)(F)F)c3)nn2)s1 (stereo not drawn)
2. O=C(NCc1cc(C(F)(F)F)ccn1)c1cn(CCCCn2cc(C(=O)NCC3CCC3)nn2)nn1

["> 7.00", "5.30 to 6.30"]

Consider the following items and state reported pIC50 for each.
1. O=C(CN1CCC(F)(F)CC1)Nc1cn(CCCCn2cc(C(=O)NCc3cc(OC(F)(F)F)ccc3F)nn2)nn1
2. CNC(=O)c1cn(CCCCc2ccc(NC(=O)CN3CCCCC3=O)nn2)nn1
3. CC(C)CNC(=O)c1nnc(CCCCc2ccc(NC(=O)Cc3cccc(OC(F)(F)F)c3)nn2)s1

1. > 7.00
2. 6.30 to 7.00
3. > 7.00
